Examples of binders with documented Kd follow.
Target: Botulinum neurotoxin type B, subtype B3 (BoNT/B3) (Clostridium botulinum)
Test protocol: flow cytometry; yeast-displayed scFv, soluble toxin
Your answer should be a plain number; it is taken to be in nM.

- Binder: "2B27 scFv (yeast displayed) (scFv) scFv: EVQLQESGPGLVKPSETLSVTCAVSGGSISSSNYSWAWIRQPPGKGLEWIGTMYYSGSTHYHPSLKSRVTISVDTSKSQLSLKLSSVTAADTAVYYCARRRLLGPSPYYFDYWGQGTLVTVSSGGGGSGGGGSGGGGSQSVVTQPPSVSGAPGQRVTISCSGSSSNIGAGYDVHWYQQLPGTAPKLLIYGNNNRPSGVPDRFSGSKSGTSASLAITGLQAEDEADYYCQSYDSSLSAYVFGTGTKLTVLG"
  Kd [nM]: 2.32

Consider now this further binder.
Noted for 2B24 scFv (yeast displayed) (scFv) scFv: QVQLVESGGGVVQPGRSLRLSCAASGLTFSVYGMHWVRQAPGKGLEWVAVISHTGSEEYYADSVKGRFSISRDNSNNTLFLQMNSLRPEDTAVYYCVKDGPMAAIPFYYFDFWGQGTLVTVSSGGGGSGGGGSGGGGSQSVVTQPPSVSAAPGQKVTISCSGSSSNIGNNYVSWYQQLPGTAPKLLIYDNNKRPSGIPDRFSGSKSGTSATLGITGLQTGDEADYYCGTWDSSLSAGVFGGGTKLTVLG : its Kd reads 4
